This collection of values is drawn from patent US20030207924A1.

Target: hPPARβ chimeric receptor (Homo sapiens, UniProt Q03181)
Construct: "expression plasmids encoding hPPARα, hPPARβ or mPPARγ chimeric receptors"
Sequence (Q03181 171-441 limits assumed, change not shown): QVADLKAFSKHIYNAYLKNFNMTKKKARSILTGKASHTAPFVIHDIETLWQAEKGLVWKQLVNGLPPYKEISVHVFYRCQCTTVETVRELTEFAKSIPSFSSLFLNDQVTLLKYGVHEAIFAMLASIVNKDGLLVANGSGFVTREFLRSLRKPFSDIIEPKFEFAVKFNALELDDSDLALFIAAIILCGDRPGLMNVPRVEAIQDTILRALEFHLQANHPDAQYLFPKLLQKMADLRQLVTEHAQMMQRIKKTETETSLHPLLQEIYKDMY
Test: Transient transfection assay in HepG2 cells, Gal4-hPPARβ chimeric receptor, luciferase reporter (Test A)
From the text: 1. Test A. Transient Transfections Assay Using the HepG2 Hepatoma Cell Line. HepG2 cells were transiently transfected with an expression plasmids encoding hPPARα, hPPARβ or mPPARγ chimeric receptors and a reporter containing the yeast upstream activating sequence (UAS) upstream of the viral E1B promoter controlling a luciferase reporter gene. In addition, the plasmid pRSVβ-gal was used to control for transfection efficiency. […]
PROPERTY_NAME: EC50
Phrase the answer as number then unit, nothing more needed.

SUBSTANCE_SMILES | ASSAY_VALUE
Cc1cc(SCc2sc(-c3ccc(C(F)(F)F)cc3)nc2C)c(C)cc1OCC(=O)O | 14.4 nM

Qu. Item Cc1cc(OCC(=O)O)c(C(C)C)cc1SCc1sc(-c2ccc(C(F)(F)F)cc2)nc1C : provide EC50
Ans. 891 nM

Qu. Kindly indicate its recorded EC50. Item: COCc1cc(OCC(=O)O)c(C)cc1SCc1sc(-c2ccc(C(F)(F)F)cc2)nc1C
Ans. 649 nM
